The measured values listed here are drawn from ChEMBL document CHEMBL3414541.

- method.summary: Cytotoxicity against CHO cells assessed as cell viability after 24 hrs by MTT assay
- Format: cell-based, Cricetulus griseus
- test.settings: chinese hamster

{"columns": ["compound", "CC50 at 24 h / µM"],
 "data": [
  ["COc1cccc2c1C(=O)c1c(O)c3c(c(O)c1C2=O)C[C@@](O)(C(=O)CO)C[C@@H]3O[C@H]1C[C@H](N)[C@H](O)[C@H](C)O1 [DOXORUBICIN]", 0.6],
  ["Cc1ccc(-c2cc3nc(NC(C)(C)C)[nH]c(=O)c3s2)cc1", 27.5],
  ["CCN(CC)CCCC(C)Nc1ccnc2cc(Cl)ccc12 (stereo not drawn) [CHLOROQUINE]", 155]
]}

----------
- System: HepG2
- method.summary: Cytotoxicity against human HepG2 cells assessed as cell viability after 72 hrs by MTT assay
- Format: cell-based
- test.settings: hepg2, 72 h, 72 h, read-out: CC50

{"columns": ["smiles.str", "CC50, µM"],
 "data": [
  ["Cc1ccc(-c2cc3nc(NC(C)C)[nH]c(=O)c3s2)cc1", 49.4],
  ["CC(C)(C)Nc1nc2cc(-c3ccc(Cl)cc3)sc2c(=O)[nH]1", 15],
  ["Cc1ccc(-c2cc3nc(NC(C)(C)C)[nH]c(=O)c3s2)cc1", 25.6]
]}

----------
Recorded log10 CC50 at 72 h values for a group of molecules are listed next.
- method.summary: Cytotoxicity against human HepG2 cells assessed as cell viability after 72 hrs by MTT assay
- Format: cell-based
- test.settings: HepG2 cells
measured.attribute: log10 CC50 at 72 h (log10 of the value in µM)

{"columns": ["molecule", "log10 CC50 at 72 h"],
 "data": [
  ["CC(C)(C)Nc1nc2ccsc2c(=O)[nH]1", 0.92],
  ["CC(C)Nc1nc2ccsc2c(=O)[nH]1", 1.38],
  ["Cc1ccc(-c2cc3nc(NC(C)(C)C)[nH]c(=O)c3s2)cc1.Cl", 1.38],
  ["Cc1ccc(-c2csc3c(=O)[nH]c(NC(C)(C)C)nc23)cc1", 0.15],
  ["Cc1ccccc1-c1cc2nc(NC(C)(C)C)[nH]c(=O)c2s1", 0.60],
  ["COc1ccc(-c2cc3nc(NC(C)C)[nH]c(=O)c3s2)cc1", 1.43],
  ["CC(C)(C)Nc1nc2c(-c3ccc(F)cc3)csc2c(=O)[nH]1", 0.36],
  ["CC(C)Nc1nc2c(-c3ccc(Cl)cc3)csc2c(=O)[nH]1", 0.85],
  ["COc1ccc(-c2cc3nc(NC(C)(C)C)[nH]c(=O)c3s2)cc1", 1.51],
  ["Cc1ccc(-c2cc3nc(NC(C)c4ccccc4)[nH]c(=O)c3s2)cc1 (stereo unspecified)", 0.96],
  ["CCC(CC)Nc1nc2cc(-c3ccc(C)cc3)sc2c(=O)[nH]1", 2.00]
]}

----------
Recorded pIC50 values for a group of compounds are listed next.
- Test system: Toxoplasma gondii
- method.summary: Antitoxoplasmic activity against tachyzoite stage of Toxoplasma gondii PRU transfected with beta galactosidase infected in HFF assessed as parasite growth inhibition after 96 hrs by colorimetric microtiter assay
- Type: functional
pIC50: −log10 of the molar value.

{"columns": ["smiles.str", "assayed.system", "pIC50"],
 "data": [
  ["Cc1ccc(-c2cc3nc(NC(C)(C)C)[nH]c(=O)c3s2)cc1", "Toxoplasma gondii", "< 5.00"],
  ["CC(C)(C)Nc1nc2cc(-c3ccc(Cl)cc3)sc2c(=O)[nH]1", "Toxoplasma gondii", "< 5.00"],
  ["Cc1ccc(-c2cc3nc(NC(C)C)[nH]c(=O)c3s2)cc1", "Toxoplasma gondii", "< 5.00"]
]}

----------
- method.summary: Cytotoxicity against human HepG2 cells assessed as cell viability after 72 hrs by MTT assay
- Type: cell-based
- test.settings: HepG2 cells

{"columns": ["smiles.str", "CC50 at 72 h"],
 "data": [
  ["CCCNc1nc2cc(-c3ccc(C)cc3)sc2c(=O)[nH]1", "> 62.5 µM"],
  ["CC(C)Nc1nc2cc(-c3ccc(Br)cc3)sc2c(=O)[nH]1", "13.4 µM"],
  ["CCCCN(C)c1nc2cc(-c3ccc(C)cc3)sc2c(=O)[nH]1", "3 µM"],
  ["CCCCCCCNc1nc2cc(-c3ccc(C)cc3)sc2c(=O)[nH]1", "6.8 µM"],
  ["CC(C)(C)Nc1nc2cc(-c3ccc(Br)cc3)sc2c(=O)[nH]1", "1.4 µM"],
  ["COc1ccc(-c2csc3c(=O)[nH]c(NC(C)C)nc23)cc1", "27.8 µM"],
  ["CC(C)(C)Nc1nc2cc(-c3ccc(Cl)cc3)sc2c(=O)[nH]1.O=C(O)/C=C/C(=O)O", "15.6 µM"],
  ["Cc1ccc(-c2ccc3nc(NC(C)(C)C)[nH]c(=O)c3c2)cc1.Cl", "0.49 µM"],
  ["CC(C)Nc1nc2c(-c3ccc(Br)cc3)csc2c(=O)[nH]1", "6.5 µM"],
  ["Cc1ccc(-c2cc3nc(NC(C)C)[nH]c(=O)c3s2)cc1.O=C(O)/C=C/C(=O)O", "26.9 µM"],
  ["Cc1ccc(-c2ccc3c(=O)[nH]c(NC(C)(C)C)nc3c2)cc1", "0.98 µM"],
  ["Cc1ccc(-c2csc3c(=O)[nH]c(NC(C)C)nc23)cc1", "8.8 µM"]
]}
